Target: Homeobox protein Hox-A13 (Mus musculus)
Test: inhibitors of HoxA13-DNA binding, primary screen, biochemical, fluorescence polarization, labeled oligonucleotide (AID 1185)
Details: 15 min, higher = more signal, called active from +8 up or from −8 down
Measurement kind: z-score

{"columns": ["Compound", "Test system", "Measurement kind", "Experimental result"],
 "data": [
  ["CCOC(=O)C1=C[C@@H](c2ccccc2)N(S(=O)(=O)c2ccc(C)cc2)[C@H]1c1ccccc1", "Homeobox protein Hox-A13 (Mus musculus)", "z-score", 0.0724],
  ["CN1C(=O)C2C=CC(C(O)c3cc(C(F)(F)F)cc(C(F)(F)F)c3)N(Nc3ccccc3)C2C1=O (centres undefined)", "Homeobox protein Hox-A13 (Mus musculus)", "z-score", -3.84],
  ["COc1ccc(C#Cc2ccc3c(c2)[C@]2(C(=O)N3)[C@H](C(=O)Nc3nc4ccccc4s3)[C@H]3C(=O)O[C@H](c4ccccc4)[C@H](c4ccccc4)N3[C@@H]2c2ccccc2OCCO)cc1", "Homeobox protein Hox-A13 (Mus musculus)", "z-score", -0.889],
  ["COc1ccc(NC(=O)O[C@H]2[C@@H]3OC(=O)[C@H](Cc4cccc(Br)c4)C/C=C/C[C@@H](Cc4cccc(Br)c4)C(=O)O[C@H]3[C@@H](OC)O[C@@H]2CO)cc1", "Homeobox protein Hox-A13 (Mus musculus)", "z-score", -1.86],
  ["CCCCC(=O)N(CCN1CCOCC1)[C@@H]1CC(C(=O)NCCO)=C[C@H](Oc2c(I)cc(CO)cc2OC)[C@H]1O", "Homeobox protein Hox-A13 (Mus musculus)", "z-score", -4.26],
  ["O=C(CS)NCCCCCNC(=O)[C@@H]1C[C@@H]2C(=O)N[C@@H](Cc3ccccc3)C(=O)N2[C@@H]1c1cccc(OCCO)c1", "Homeobox protein Hox-A13 (Mus musculus)", "z-score", -2.89],
  ["C=CCC(OC(C)=O)[C@@H]1[C@@H](N(Cc2cccc3ccccc23)C(=O)Cc2ccc(F)cc2)c2cc(OCCCO)ccc2N1C(=O)c1ccc(-c2ccccc2)cc1 (some centres undefined)", "Homeobox protein Hox-A13 (Mus musculus)", "z-score", -1.09],
  ["C[C@]1(C(=O)NCC(F)(F)F)c2ccccc2C(=O)N(Cc2ccccc2)[C@H]1c1ccc(CO)cc1", "Homeobox protein Hox-A13 (Mus musculus)", "z-score", -4.07],
  ["CC(C)C[C@@H]1NC(=O)[C@H]2C[C@@H](C(=O)NCCCCCN)[C@@H](c3cccc(OCCO)c3)N2C1=O", "Homeobox protein Hox-A13 (Mus musculus)", "z-score", -3.68],
  ["CCCCC=C[C@@H](NC(=O)c1ccccc1)c1ccccc1", "Homeobox protein Hox-A13 (Mus musculus)", "z-score", 2.61],
  ["C=CCC(OC(C)=O)[C@@H]1[C@@H](N(Cc2ccc(-c3ccccc3)cc2)C(=O)Cc2ccc(F)cc2)c2cc(OCCCO)ccc2N1C(=O)Cc1ccc2ccccc2c1 (some centres undefined)", "Homeobox protein Hox-A13 (Mus musculus)", "z-score", -1.5],
  ["[N-]=[N+]=NCc1ccccc1[C@H]1OC(c2ccc(OCCCO)cc2)=N[C@@]1(Cc1ccccc1)C(=O)NCCN1CCOCC1", "Homeobox protein Hox-A13 (Mus musculus)", "z-score", -0.974],
  ["O=C1C[C@@](C(=O)NCC(F)(F)F)(c2ccc([N+](=O)[O-])cc2)[C@@H](c2ccc(CO)cc2)N1CC12CC3CC(CC(C3)C1)C2", "Homeobox protein Hox-A13 (Mus musculus)", "z-score", -4.42],
  ["CCCCCCCCCCC(O)C1C=CC2C(=O)N(c3ccccc3)C(=O)C2N1Nc1ccccc1F (centres undefined)", "Homeobox protein Hox-A13 (Mus musculus)", "z-score", 0.356]
]}
